Entries and their measured apparent KD of MS2 coat protein follow.
# Tested on: MS2 coat protein
# ASSAY OVERVIEW: apparent KD of MS2 coat protein; designed switch direction (-1 OFF switch, 1 ON switch): -1; higher = weaker reporter binding
# MEASUREMENT SETUP: input ligand: microRNA oligo, concentration not stated
Answer with a number only, understood to be in nM.

Look over these answered cases.
{"columns": ["CHAIN SEQUENCE", "apparent KD of MS2 coat protein (nM)"],
 "data": [
  ["CAUAUGGGAGGAUAUGCAUAGAUAAAGAAACAUGUUCAACCACAUGAGGAUCACCCAUGUAGAAGGCCCAUAUG [Mat - Same state - Mayanna Mod - D102] (Eterna round: R96, puzzle: Exclusion 2)", 22.7],
  ["GAGACAUGAGGAUCACCCAUGUGUGGUCCAAGGCAUGUCGUCGAGGAUAUGCAGGACGUCGUCUUGCAGAAGGCGACUAAAUAC [Teatarti] (Eterna round: R96, puzzle: Exclusion NG 3)", 19.5],
  ["UUUGUUUAUGUAGGAUAUGCCUGGCGUGCCUUCGCAGAAGGACAUGAGGAUCACCCAUGUAUUGCGGUCUGCGUUCAGAUCGCC [salish99_ExNG1_r4_028] (Eterna round: R96, puzzle: Exclusion NG 1)", 16.1],
  ["AGCGAAAAGGCAGGAUAUGAGAAUAGAUAGAGCUCAGAAGGGCCACAUGAGGAUCACCCAUGUAAAGUCUUGAGGCUGCGUGGU [Prohibition 12 - Jieux - Exclusion NG 1] (Eterna round: R96, puzzle: Exclusion NG 1)", 68.4],
  ["UCUCGCAGGCAAGGAUAUCCUACAUUGUUCUGGCCCGGGCAUGUUACAUGAGGAUCACCCAUGUGGGAGAAGGUGCGCCAGGGC [Design 34] (Eterna round: R96, puzzle: Exclusion NG 2)", 16.3]
]}

## Input // apparent KD of MS2 coat protein lookup, key: GCACGAAGUGUAGGAUAUCUGUGCGAUUAGCUCAGAGAAGGACACAUGAGGAUCACCCAUGUGUUUCACGGAAACGAAACGUGC [Eli exng1 - 054] (Eterna round: R96, puzzle: Exclusion NG 1)
## Output 9.54

## Input How about AGUACUAACACGAAAGUGUUAGUACAAUAAGCUUGUGAUACAUGAGGAUCACCCAUGUCCUCAUAAGCUCGUCUUAU [salish99_TOv2_r3_045] (Eterna round: R96, puzzle: Sensor v3, turn-off variant 2) ?
## Output 714

## Input Would you kindly repeat that for AGGUCCUUCUGGAGACAUGAGGAUCACCCAUGUCGAGUCAGCGAGGAUAUCGGUUAAUAAUGUGAUGAGAAGGCGCAGACCGAU [Ex NG3 #53] (Eterna round: R96, puzzle: Exclusion NG 3) ?
## Output 8.55

## Input Record: CUCGUGCAGCAAAGCUGUACGAGUACAUGAGGAUCACCCAUGUAGGAUAUGGUACGCAAAGCGUGCUAGAAGGAUAUGUGAAGG [Mat - Exclusion NG 3 - Mod of JL - D88] (Eterna round: R96, puzzle: Exclusion NG 3)
## Output 36.2

## Input Record: UUACGGCGGAUCGUGGCUUUUUGCUCGUCUUGUGCUACAACAUGAGGAUCACCCAUGUAGAGGUGAUCCGUUGUAUU [Grok-var2-19 mod JAL] (Eterna round: R96, puzzle: Sensor v3, turn-off variant 2)
## Output 13.4

## Input Can you check UUCAGGAGUCGAGGAUAUUUGCAGACGACAUGAGGAUCACCCAUGUGGUUAGCAUAGUCUUCAGCAGAGAAGGCGACCAACGAG [Eternabot solution 20] (Eterna round: R96, puzzle: Exclusion NG 2) next?
## Output 40

## Input Input ACAUGUCAUUGAGGAUAUUGCACACAUGAGGAUCACCCAUGUAAACGGAUGCUCUUACGUGGGUUCGAGAAGGCGAUGUACAUU [Ex NG2 #94] (Eterna round: R96, puzzle: Exclusion NG 2)
## Output 186

## Input And the next one, UCACGGGACUAAGGAUAUACAUGAACUAUUAUUGUAGAAGGUAGAAUGUUAGAUUAUACACUAAACAUGAGGAUCACCCAUGUU [JR_ExcNG1_Sub094] (Eterna round: R96, puzzle: Exclusion NG 1) ?
## Output 15.9

## Input Moving on to the next sequence: UAAGGUGGUACCAUGAACAUGAGGAUCACCCAUGUACCUUAGAAGGAUAUCGCGACGUGUACGCGCGAGAAGGUCUACAACGUA [Eternabot solution 35] (Eterna round: R96, puzzle: Exclusion NG 3)
## Output 70.1

## Input Same question, GGAAGAGAGAUAGGAUAUUAAAGGAAGAUGGUGAGAGAGACAUGAGGAUCACCCAUGUAAAGGAAUAAGAAGGGUCAGAAGGAA [EXNG2 V2 g] (Eterna round: R96, puzzle: Exclusion NG 2) this time
## Output 104

## Input And what about the sequence AAAUACCGGUGAGGAUAUUUAUAAUAGAGCUUUAUGAUAUACAUGAGGAUCACCCAUGUUACUUUAAAGAAGGCAUCGGAAUAA [Mat - Exclusion NG 2 - Mod of JL - D93] (Eterna round: R96, puzzle: Exclusion NG 2) ?
## Output 13.9

## Input Query UGGUGUUACGUAGGAUAUUGUCAACAGGCAGUAGGAUAUGCGAAAGCAGAAGGACCGCCAACAGGCGAGAAGGACGGGUUACCU [pwkr exNG2 2xF7 2xFMN.8] (Eterna round: R96, puzzle: Exclusion NG 2) next
## Output 145
